Field: Kd. Provide a value for each of the binders that follow.
Molecular target: T1, human BMP-11 (GDF-11; R&D Systems) (human, UniProt O95390 299-407)
T1 sequence (looked up): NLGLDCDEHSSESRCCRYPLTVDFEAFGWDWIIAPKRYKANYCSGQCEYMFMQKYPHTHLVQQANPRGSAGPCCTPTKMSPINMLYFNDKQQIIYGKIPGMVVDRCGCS
Assay: SPR format A, 25C
Only the number, expressed in nM, is required.

Kd measured on ATI-1378 [40K 2-branch PEG] (designed binder, 40K 2-branch PEG on the Cys of the EGSGC tail, cysteine mutant of 3146_A08) MGVSDVPRDLEVVAATPTSLLISWSLPNPGNAHYYRITYGETGGNSPVQEFTVPGRGVTATISGLKPGVDYTITVYAVTVTDTGFITYKPISINYRTEGSGCHHHHHH = 59.6

// Kd lookup, binder = ATI-1277 [N-ethylmaleimide] (designed binder, N-ethylmaleimide on the Cys of the EGSGC tail, cysteine mutant of 2525_D05) MGVSDVPRDLEVVAATPTSLLISWSLPYAGHLNYYRITYGETGGNSPVQEFTVPGRGVTATISGLKPGVDYTITVYAVTLTKSQLIHYMPISINYRTEGSGCHHHHHH , result: 0.14

Briefly, Kd measured for ATI-1275 [N-ethylmaleimide] (designed binder, N-ethylmaleimide on the Cys of the EGSGC tail, cysteine mutant of 2524_D09) MGVSDVPRDLEVVAATPTSLLISWYLPYPAHMNYYRITYGETGGNSPVQEFTVPGRGLTATISGLKPGVDYTITVYAVTLTKSQILHHRPISINYRTEGSGCHHHHHH : 0.15

For reference, reported Kd for ATI-1276 [40K 2-branch PEG] (designed binder, 40K 2-branch PEG on the Cys of the EGSGC tail, cysteine mutant of 2524_D09) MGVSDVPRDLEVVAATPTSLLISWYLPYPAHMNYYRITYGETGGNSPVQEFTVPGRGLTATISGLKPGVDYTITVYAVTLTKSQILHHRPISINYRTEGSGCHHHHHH stands at 8.8
